study_target: Insulin-degrading enzyme (Homo sapiens)
assay_summary: fluorescence artefact check, IDE FRET1 cleavage – biochemical, FRET1 substrate, round 2, artefact control for IDE inhibitor project, late-stage follow-up (AID 624340)
test_settings: recombinant WT IDE
The source made the active and inactive calls.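 The calls were made as follows: active = IC50 at or below 10 µM; inactive = IC50 above 10 µM.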
Could you please report measured IC50 for the items listed next?

molecule	measured_value
CCOc1ccc(C(=O)N2CCN(C(=O)C3COc4ccccc4O3)CC2)cc1 (stereo not drawn)	> 100 µM (inactive)
COc1ccc(C(=O)N2CCN(C(=O)COc3ccc(C)cc3)CC2)cc1OC	> 100 µM (inactive)

# query: IC50 of entry COc1ccc(C(=O)N2CCN(C(=O)C(c3ccccc3)c3ccccc3)CC2)cc1OC
> 100 µM (inactive)
